method: Inhibition of COM crystal growth in three growth directions, inhibitors alone and in combination pairs
reportedConditions: [001] direction; inhibitor alone
readoutType: concentration of the single inhibitor achieving 10% inhibition of crystal growth (mM)

molecule	reportedValue
O=C([O-])CC(O)(CC(=O)[O-])C(=O)[O-].[K+].[K+].[K+] [KCA, potassium citrate]	0.0106
O=C(O)c1ccc(O)c(O)c1	0.0255
O=C(O)CC(O)(C(=O)O)C(O)C(=O)O (centres unmarked) [HCA, hydroxycitric acid]	0.0088
O=C(O)CC(O)(CC(=O)O)C(=O)O	0.0108
Oc1cccc(O)c1O	0.0021

###

method: Inhibition of COM crystal growth in three growth directions, inhibitors alone and in combination pairs
reportedConditions: [001] direction; inhibitor alone; read-out: concentration of the single inhibitor achieving 50% inhibition of crystal growth
pIC50: −log10 of the molar value.
Below is a list of entries, each paired with its recorded pIC50 value.
readoutType: pIC50

molecule	reportedValue
O=C(O)c1ccc(O)c(O)c1	3.58
O=C(O)CC(O)(C(=O)O)C(O)C(=O)O (centres unmarked) [HCA, hydroxycitric acid]	4.25
Oc1cccc(O)c1O	4.85
O=C([O-])CC(O)(CC(=O)[O-])C(=O)[O-].[K+].[K+].[K+] [KCA, potassium citrate]	4.15
O=C(O)CC(O)(CC(=O)O)C(=O)O	4.15

###

method: Inhibition of COM crystal growth in three growth directions, inhibitors alone and in combination pairs
reportedConditions: [121] direction; inhibitor alone
Experimental: Different concentrations of citric acid (CA) and ellagic acid (EA) were added to 25 ml of deionized water, the supersaturation of the solution was controlled at S=2.4, and the growth process of the crystal was monitored. […] Different concentrations of citric acid (CA) and gallic acid (GaA) were added to 25 ml of deionized water, and the growth process of the crystal was monitored. […]
Listing: concentration of the single inhibitor achieving 10% inhibition of crystal growth of selected compounds
readoutType: concentration of the single inhibitor achieving 10% inhibition of crystal growth (mM)

compound	reportedValue
Oc1cccc(O)c1O	0.0027
O=C(O)c1ccc(O)c(O)c1	0.0307
O=C([O-])CC(O)(CC(=O)[O-])C(=O)[O-].[K+].[K+].[K+] [KCA, potassium citrate]	0.0135
O=C(O)CC(O)(CC(=O)O)C(=O)O	0.0135
O=C(O)CC(O)(C(=O)O)C(O)C(=O)O (centres unmarked) [HCA, hydroxycitric acid]	0.0110

###

Entries and their IC50 values follow.
method: Inhibition of COM crystal growth in three growth directions, inhibitors alone and in combination pairs
reportedConditions: [021] direction; inhibitor alone; read-out: concentration of the single inhibitor achieving 50% inhibition of crystal growth

molecule	unitSpec	IC50
O=C(O)CC(O)(CC(=O)O)C(=O)O [CA, citric acid]	µM	79.5
O=C(O)c1ccc(O)c(O)c1 [PrA, protocatechuic acid]	µM	186
Oc1cccc(O)c1O [PGA, pyrogallol]	µM	12.1
O=C([O-])CC(O)(CC(=O)[O-])C(=O)[O-].[K+].[K+].[K+] [KCA, potassium citrate]	µM	79.4
O=C(O)CC(O)(C(=O)O)C(O)C(=O)O (centres unmarked) [HCA, hydroxycitric acid]	µM	61

###

Quick reference: concentration of the single inhibitor achieving 30% inhibition of crystal growth of the listed items.
method: Inhibition of COM crystal growth in three growth directions, inhibitors alone and in combination pairs
reportedConditions: [001] direction; inhibitor alone
Description: Different concentrations of citric acid (CA) and ellagic acid (EA) were added to 25 ml of deionized water, the supersaturation of the solution was controlled at S=2.4, and the growth process of the crystal was monitored. […] Different concentrations of citric acid (CA) and gallic acid (GaA) were added to 25 ml of deionized water, and the growth process of the crystal was monitored. […]
readoutType: concentration of the single inhibitor achieving 30% inhibition of crystal growth (mM)

compound	reportedValue
O=C(O)c1ccc(O)c(O)c1	0.0982
Oc1cccc(O)c1O	0.0073
O=C([O-])CC(O)(CC(=O)[O-])C(=O)[O-].[K+].[K+].[K+] [KCA, potassium citrate]	0.0369
O=C(O)CC(O)(C(=O)O)C(O)C(=O)O (centres unmarked) [HCA, hydroxycitric acid]	0.0281
O=C(O)CC(O)(CC(=O)O)C(=O)O	0.0369
